Tested on: 786-O
Experiment: Euclidean distance of Cell Painting phenotypic profile (signed KS, 77 features) to DMSO centroid (dimensionless distance); 5 or 10 uM (library dependent); higher = stronger phenotypic change vs DMSO (phenoactivity)
Details: 48 h
Where a name gives a salt, the structure may show the parent alone.
Euclidean distance by entry:
I'd appreciate a reply containing only the number, no unit.

>  <molecule>
N#Cc1ccc2[nH]c(O)c(-c3ccc(CN4CCOCC4)cn3)c2c1

>  <numeric.value>
3.45

$$$$
>  <molecule>
CCC[S+]([O-])c1ccc2[nH]c(NC(=O)OC)nc2c1 (centres undefined) [Albendazole Oxide]

>  <numeric.value>
1.29

$$$$
>  <molecule>
COc1cc(/C=C/C(=O)N2CCN(CC(=O)N3CCCC3)CC2)cc(OC)c1OC [Cinepazide maleate]

>  <numeric.value>
1.21

$$$$
>  <molecule>
CCc1cc(/C(C)=N/OCc2ccc(C3CCCCC3)c(C(F)(F)F)c2)ccc1CN1CC(C(=O)O)C1 [BAF312 (Siponimod)]

>  <numeric.value>
1.61

$$$$
>  <molecule>
Cc1ccc(S(=O)(=O)NC(=O)NN2CC3CCCC3C2)cc1 (centres undefined) [Gliclazide]

>  <numeric.value>
1.36

$$$$
>  <molecule>
CN1CCC(=C2c3ccccc3C=Cc3ccccc32)CC1 [Cyproheptadine HCl]

>  <numeric.value>
1.25

$$$$
>  <molecule>
C#CCN(C)Cc1ccccc1 [Pargyline hydrochloride]

>  <numeric.value>
1.39

$$$$
>  <molecule>
C[C@@H](NCCCc1cccc(C(F)(F)F)c1)c1cccc2ccccc12 [Cinacalcet HCl]

>  <numeric.value>
1.32

$$$$

Would you kindly look at the next entry?
Input: Param item = CC(C)C(=O)c1c(C(C)C)nn2ccccc12 [Ibudilast] ; retrieve measured Euclidean distance.
Output: 0.973
